Exercise: state measured GI50 for each of the compounds provided.
test system: BT-549 breast; assay: NCI tumour cell line growth inhibition, 48 h

For reference, reported GI50 for "COc1ccccc1C#Cc1ccccc1C#CCCCCO" stands at 15.5 µM

"CC[C@H](Nc1ncnc2nc[nH]c12)c1nc2cccc(F)c2c(=O)n1-c1ccccc1" has a reported GI50 of 4.64 µM

Lab note: measured GI50 of "O=c1c2cc(F)ccc2sc2c(N3CCNCC3)nc3ccc(F)cc3c12" was 10.1 µM

Recorded GI50 (compound "Nc1ccccc1C#C/C=C\C#Cc1ccc(OCCCNC(=O)c2cc3ccccc3[nH]2)cc1" ): 9.23 µM

According to the records, this compound "CCNc1cc(-c2cccc(OC(F)(F)F)c2)nc2ccc(N3CCCC3)cc12" displays GI50 of 2.03 µM

Item: "COc1cc2nc(SCc3cc(OC)c(OC)c(OC)c3)n(Cc3ccccc3)c(=O)c2cc1OC" | GI50: 3.32 µM

Please fill in: GI50 reported for "COc1cc(F)c(F)c(Nc2ccc(I)cc2F)c1NS(=O)(=O)C1(C[C@H](O)CO)CC1" = > 5.26 µM

Please fill in: GI50 reported for "COC(=O)c1cc2c3ccccc3n3c(=O)c4cc5ccc(N(S(=O)(=O)c6ccc(C)cc6)S(=O)(=O)c6ccc(C)cc6)cc5nc4c(n1)c23" = 35.7 µM

The value of GI50 measured for the compound "COc1ccc(NC(=O)CSC2=C(Nc3cccc(Br)c3)C(=O)N(Cc3ccccc3)C2=O)cc1Cl" turned out to be 51.6 µM

###

test system: RXF 393 renal; test: NCI tumour cell line growth inhibition, 48 h; in the data active = GI50 below about 0.43 µM; inactive = the rest
// classify into active, inactive

Request: Per the records of this test, what outcome belongs to "Cn1c(C(=O)c2ccncc2)cc2ccccc21" ?
Result: inactive

Request: For "C=CCn1c(C)nc2ccc(Nc3nc(Nc4ccc(F)cc4)nc4ccccc34)cc21" , which call appears in the assay record?
Result: inactive

Request: What classification did "O=S(=O)(NCCNc1nccc(-c2c(-c3ccc(F)c(O)c3)nc3sccn23)n1)c1ccc(F)cc1" end up with in this test?
Result: inactive

Request: Which outcome was assigned to "C[C@@H]1C[C@H](C)CN(S(=O)(=O)c2ccc3c(NO)c4ccc(S(=O)(=O)N5C[C@H](C)C[C@H](C)C5)cc4c(N=O)c3c2)C1" in this test?
Result: active

Request: Look up the recorded call for "COc1cc2ncn(-c3cc(OCc4ccccc4C(F)(F)F)c(C(=O)N(C)C)s3)c2cc1OC" in this test.
Result: inactive

###

system: EKVX NSCLC; assay: NCI tumour cell line growth inhibition, 48 h
measured metric: TGI

Measured TGI, "O=C(N/N=C/c1cc(Cl)cc(Cl)c1[O-])c1ccccc1O.O=C(N/N=C/c1cc(Cl)cc(Cl)c1[O-])c1ccccc1O.[Co+2]" : 14.8 µM

Record "CC(=O)c1c(C)nc(SSc2nc(C)c(C(C)=O)c(-c3ccc(Cl)cc3)c2C#N)c(C#N)c1-c1ccc(Cl)cc1" , field TGI: > 150 µg/mL

Entry COc1ccc(S(=O)(=O)N2CCN(C(=O)c3ccc(-c4ccccc4)cc3)CC2C(=O)NO)cc1 (stereo not drawn) — recorded TGI = 7.02 µM

Please fill in: TGI reported for CC(C)(C)c1cc(C(O)(C(F)(F)F)C(F)(F)F)c2c(c1)C(C(F)(F)F)(C(F)(F)F)OC(C)(C(C)(C)C)N2 (stereo not drawn) = 22.4 µM

// sample "CCCC(CCC(N)=O)(CCC(N)=O)[N+](=O)[O-]" , its TGI was > 100 µM

Kindly note the recorded TGI for "CC[n+]1oc(C(=O)c2ccc(Cl)cc2)c(-c2ccccc2)c1-c1ccccc1.[Cl][Fe]([Cl])([Cl])[Cl]" , which is > 100 µM

# compound "O=C(O)c1ccc(NCn2nc(-c3ccccc3O)oc2=S)cc1" ; its TGI = > 100 µM

Reported TGI of "C=C(C(=O)O)[C@@H]1C[C@@H]2O[C@H]1[C@@H](O)[C@@H](C)CCCC(C)=CCC[C@@]2(C)O" : > 100 µM

###

tested on: KM12 colon; assay: NCI tumour cell line growth inhibition, 48 h
measured metric: TGI (µM)
# number only, unit µM dropped from output

response.value for c1ccc(C(NCC2CCO2)(c2ccccc2)c2ccccc2)cc1 (stereo unspecified) (field: TGI) = 28.8

response.value for "CCC[CH2][Sn]([Cl])([Cl])[CH2]CCC" (field: TGI) = 2.81

For reference, reported TGI for "Nc1[nH]nc(Nc2ccc(Cl)cc2)c1P(=O)(c1ccccc1)c1ccccc1" stands at 37.5

###

test system: K-562 leukemia; assay: NCI tumour cell line growth inhibition, 48 h; in the data active = GI50 below about 0.43 µM; inactive = the rest
Write down the outcome that applies. Available outcomes: active, inactive

Request: Per the records of this test, what outcome belongs to "CC(C)Nc1cc(-c2c[nH]c(C(=O)N[C@H](CO)c3cccc(Cl)c3)c2)c(Cl)cn1" ?
Result: inactive

Request: Give the logged outcome of this assay for the following compound: O=C(/C=C/c1ccccc1)C(Br)C(Br)c1ccccc1 (stereo not given)
Result: active

Request: GET /call?item= "CCC[CH2][Sn]([Cl])([Cl])[CH2]CCC" returns the recorded outcome of this test.
Result: active

Request: Write down the call the test reported for this compound. Item: "Nc1ccccc1C#C/C=C\C#Cc1ccc(OCCCNC(=O)c2cc3ccccc3[nH]2)cc1"
Result: inactive

Request: How was "CC[n+]1oc(C(=O)c2ccc(Cl)cc2)c(-c2ccccc2)c1-c1ccccc1.[Cl][Fe]([Cl])([Cl])[Cl]" classified in this test?
Result: inactive

###

test system: OVCAR-4 ovarian; assay: NCI tumour cell line growth inhibition, 48 h
measured metric: TGI (µM)
Answer format: numeric, µM implied, no suffix.

Form: compound = CCN1CCC(O)(c2ccc(Oc3ccc(F)cc3)cc2)C(C(=O)c2ccc(Oc3ccc(F)cc3)cc2)C1 (stereo not drawn) ; TGI = 29

The reported value for "Cc1ncc(C(=O)Nc2ccc(CN3CCN(C)CC3)c(C(F)(F)F)c2)cc1C#Cc1cnc2cccnn12" in terms of TGI is 1.98

###

test system: SF-539 CNS; test: NCI tumour cell line growth inhibition, 48 h; in the data active means GI50 below about 0.43 µM; inactive means the rest
Valid outcomes are listed here; reply with one: active, inactive

Request: Tell me the recorded outcome of this test for O=C(/C=C/C12c3ccccc3C(c3ccccc31)C1C(=O)NC(=O)C12)c1ccc(Cl)cc1Cl (stereo not given) .
Result: inactive

Request: GET /call?item= "C[C@@H]1C[C@H](C)CN(S(=O)(=O)c2ccc3c(NO)c4ccc(S(=O)(=O)N5C[C@H](C)C[C@H](C)C5)cc4c(N=O)c3c2)C1" returns the recorded outcome of this test.
Result: active

Request: Could you check what this test reported for "COc1ccc2c(=O)cc(-c3ccccc3)[nH]c2c1" ?
Result: inactive

Request: Recorded call for "S=c1snc2n1CCN2" ?
Result: inactive

Request: What is the recorded call for this compound in the test? "Cn1c(-c2c(N)n(Nc3cccc(Cl)c3)c3nc(C#N)c(C#N)nc23)nc2ccccc21"
Result: inactive

###

system: MCF7 breast; test: NCI tumour cell line growth inhibition, 48 h
measured metric: TGI

Reported TGI ( "Nc1ccccc1C#C/C=C\C#Cc1ccc(OCCCNC(=O)c2cc3ccccc3[nH]2)cc1" ) = 7.15 µM

Consider "OCc1ccc(N2CCc3cccc(F)c3C2)cc1Cl" . Its measured TGI is 53.4 µM

// sample CC1(C)OC2[C@@H](CO[C@@]3([C@@H](O)CCO)OC(C)(C)O[C@@H]23)O1 (stereo not given in full) , its TGI was > 100 µM

What the record says about c1ccc(C(NCC2CCO2)(c2ccccc2)c2ccccc2)cc1 (stereo not given) : TGI is 31.7 µM

TGI reading for Cc1nc(N)nc2c1CCC(O)S2 (stereo not given) : 10.4 µM

Note to self: TGI recorded for "NCCSSCCN" was > 100 µM

TGI in this record for "CCNc1cc(-c2cccc(OC(F)(F)F)c2)nc2ccc(N3CCCC3)cc12" : 6.54 µM

Query "COC(=O)c1cc2c3ccccc3n3c(=O)c4cc5ccc(N(S(=O)(=O)c6ccc(C)cc6)S(=O)(=O)c6ccc(C)cc6)cc5nc4c(n1)c23" yields TGI of > 100 µM

Recorded result, "Cc1nc(CC#N)n[nH]1" , TGI: > 100 µM

So for COC(=O)CCC1=C(CC(=O)OC)C(C)(OC)N=C1NC(=O)OCc1ccccc1 (stereo not given) , the logged TGI turned out to be > 100 µM

response.value for "Nc1nc(Cl)c(N)c(NCC2(CO)CC2)n1" (field: TGI) = > 100 µM

"O=S(=O)(Nc1nc2ccccc2nc1Nc1ccc2ccccc2c1)c1ccccc1" yielded TGI of > 100 µM

Lab note: measured TGI of CC1CCC2(NC1)OC1CC3C4CC=C5CC(O)CCC5(C)C4CCC3(C)C1C2C (stereo not given) was > 100 µM

TGI for "CC(C)CCC[C@@H](C)[C@H]1CC[C@H]2[C@@H]3CC[C@H]4C[C@@H](CCC=C(c5cc(Cl)c(O)c(C(=O)O)c5)c5cc(Cl)c(O)c(C(=O)O)c5)CC[C@]4(C)[C@H]3CC[C@]12C" is > 100 µM

TGI for Cc1ccccc1OC(C)C(=O)NN1C(=O)CSC1c1ccc(Cl)cc1 (stereo not given) is > 100 µM

// TGI value for CC(=O)OC12C3C4C1C1C2C3C41OC(C)=O (stereo not given) : > 100 µM

The reported TGI of the compound O=C1/C(=C\c2cccc(Oc3ccccc3)c2)SC(c2ccccc2)N1c1ccccc1 (stereo not given) was > 100 µM

Lab book: TGI of "CC(=O)c1c(C)nc(SSc2nc(C)c(C(C)=O)c(-c3ccc(Cl)cc3)c2C#N)c(C#N)c1-c1ccc(Cl)cc1" noted as > 150 µg/mL

So for "CCOC(=O)c1[nH]c(Br)c(-c2ccc(OC)c(OC)c2)c1Br" , the logged TGI turned out to be 17.2 µM

# TGI (compound: [N-]=[N+]=NC1OC(=O)C(Cl)=C1N=P(c1ccccc1)(c1ccccc1)c1ccccc1 (stereo not given) ) is > 10 µM

"CN(C(=O)Cc1ccccc1)n1cnn(CC(=O)OC(C)(C)C)c1=S" has a reported TGI of > 10 µM

What the record says about "COc1ccc(NC(=O)CSC2=C(Nc3cccc(Br)c3)C(=O)N(Cc3ccccc3)C2=O)cc1Cl" : TGI is > 100 µM

Item: "CN(C)CCNC(=O)c1ccc(NCCCN(C)CCCNc2ccc(C(=O)NCCN(C)C)c3[nH]c4ccccc4c(=O)c23)c2c(=O)c3ccccc3[nH]c12" | TGI: 0.44 µM

For reference, reported TGI for "O=C(/C=C/c1cccc(Oc2ccccc2)c1)NCc1ccc(C(=O)NCc2ccccc2)cc1" stands at > 100 µM

The compound listed as "C#C/C=C\CCCC/C=C\C#CC#CCCCC#CC#C[C@H](COS(=O)(=O)O)OS(=O)(=O)O" shows TGI equal to > 100 µM

All values here come from PubChem BioAssay (NCI).
